- ASSAY PROCEDURE: Single dose PK in healthy subjects (Cohorts 1, 2, S1 and S2), plasma
- Assay type: in vivo, human
- RUN CONDITIONS: human, plasma, iv, 28 mg, 28 mg single IV infusion, healthy subjects; read-out: Vz Median
QUANTITY: Vd (L)
Numeric only. Scale: L

INPUT: For the compound COC(=O)N1CCC[C@H](NS(C)(=O)=O)[C@@H]1CO[C@H]1CC[C@@H](c2ccccc2)CC1 , what Vd is on record?
OUTPUT: 406

* * *

- ASSAY PROCEDURE: Single dose PK in healthy subjects (Cohorts 1, 2, S1 and S2), plasma
- Assay type: in vivo, human
- RUN CONDITIONS: human, plasma, intravenous, 180 mg; 3 hr; read-out: Plasma concentration, Q1
QUANTITY: concentration at 3 hr (ng/mL)
Numeric only. Scale: ng/mL

INPUT: For the compound COC(=O)N1CCC[C@H](NS(C)(=O)=O)[C@@H]1CO[C@H]1CC[C@@H](c2ccccc2)CC1 [Compound A] , what concentration at 3 hr is on record?
OUTPUT: 307

* * *

- ASSAY PROCEDURE: Single dose PK in healthy subjects (Cohorts 1, 2, S1 and S2), plasma
- Type: in vivo, human
- RUN CONDITIONS: human, plasma, intravenous, 180 mg; 4 hr; read-out: Plasma concentration, Median
QUANTITY: concentration at 4 hr (ng/mL)
Numeric only. Scale: ng/mL

INPUT: For the molecule COC(=O)N1CCC[C@H](NS(C)(=O)=O)[C@@H]1CO[C@H]1CC[C@@H](c2ccccc2)CC1 , what concentration at 4 hr is on record?
OUTPUT: 325

* * *

- ASSAY PROCEDURE: Single dose PK in healthy subjects (Cohorts 1, 2, S1 and S2), plasma
- Format: in vivo, human
- RUN CONDITIONS: human, plasma, intravenous, 240 mg; 6 hr; read-out: Plasma concentration, Q1
- Source text: […]
QUANTITY: concentration at 6 hr
Entry format: amount then unit.

INPUT: For the compound COC(=O)N1CCC[C@H](NS(C)(=O)=O)[C@@H]1CO[C@H]1CC[C@@H](c2ccccc2)CC1 , what concentration at 6 hr is on record?
OUTPUT: 366 ng/mL

* * *

- ASSAY PROCEDURE: Single dose PK in healthy subjects (Cohorts 1, 2, S1 and S2), plasma
- Type: in vivo, human
- RUN CONDITIONS: human, plasma, intravenous, 7 mg; 0.33 hr After End of Infusion; read-out: Plasma concentration, Median
QUANTITY: concentration at 0.33 h after end of infusion (ng/mL)
Numeric only. Scale: ng/mL

INPUT: For the compound COC(=O)N1CCC[C@H](NS(C)(=O)=O)[C@@H]1CO[C@H]1CC[C@@H](c2ccccc2)CC1 [Compound A] , what concentration at 0.33 h after end of infusion is on record?
OUTPUT: 7.16

* * *

- ASSAY PROCEDURE: Single dose PK in healthy subjects (Cohorts 1, 2, S1 and S2), plasma
- Format: in vivo, human
- RUN CONDITIONS: human, plasma, iv, 112 mg, 112 mg single IV infusion, healthy subjects; read-out: AUCinf Median
QUANTITY: AUC(0-inf) (µg·h/mL)
Numeric only. Scale: µg·h/mL

INPUT: For the compound COC(=O)N1CCC[C@H](NS(C)(=O)=O)[C@@H]1CO[C@H]1CC[C@@H](c2ccccc2)CC1 , what AUC(0-inf) is on record?
OUTPUT: 2.16

* * *

- ASSAY PROCEDURE: Single dose PK in healthy subjects (Cohorts 1, 2, S1 and S2), plasma
- Type: in vivo, human
- RUN CONDITIONS: human, plasma, intravenous, 28 mg; 1 hr; read-out: Plasma concentration, Q3
QUANTITY: concentration at 1 h (ng/mL)
Numeric only. Scale: ng/mL

INPUT: For the compound COC(=O)N1CCC[C@H](NS(C)(=O)=O)[C@@H]1CO[C@H]1CC[C@@H](c2ccccc2)CC1 , what concentration at 1 h is on record?
OUTPUT: 42.8

* * *

- ASSAY PROCEDURE: Single dose PK in healthy subjects (Cohorts 1, 2, S1 and S2), plasma
- Assay type: in vivo, human
- RUN CONDITIONS: human, plasma, intravenous, 14 mg; 1 hr; read-out: Plasma concentration, Maximum
QUANTITY: concentration at 1 h (ng/mL)
Numeric only. Scale: ng/mL

INPUT: For the compound COC(=O)N1CCC[C@H](NS(C)(=O)=O)[C@@H]1CO[C@H]1CC[C@@H](c2ccccc2)CC1 [Compound A] , what concentration at 1 h is on record?
OUTPUT: 32.1

* * *

- ASSAY PROCEDURE: Single dose PK in healthy subjects (Cohorts 1, 2, S1 and S2), plasma
- Format: in vivo, human
- RUN CONDITIONS: human, plasma, intravenous, 7 mg; 4 hr; read-out: Plasma concentration, Q1
QUANTITY: concentration at 4 hr

INPUT: For the compound COC(=O)N1CCC[C@H](NS(C)(=O)=O)[C@@H]1CO[C@H]1CC[C@@H](c2ccccc2)CC1 , what concentration at 4 hr is on record?
OUTPUT: 15.2 ng/mL

* * *

- ASSAY PROCEDURE: Single dose PK in healthy subjects (Cohorts 1, 2, S1 and S2), plasma
- Assay type: in vivo, human
- RUN CONDITIONS: human, plasma, intravenous, 14 mg; 3 hr; read-out: Plasma concentration, Minimum
QUANTITY: concentration at 3 h (ng/mL)
Numeric only. Scale: ng/mL

INPUT: For the molecule COC(=O)N1CCC[C@H](NS(C)(=O)=O)[C@@H]1CO[C@H]1CC[C@@H](c2ccccc2)CC1 , what concentration at 3 h is on record?
OUTPUT: 31.8

* * *

- ASSAY PROCEDURE: Single dose PK in healthy subjects (Cohorts 1, 2, S1 and S2), plasma
- Type: in vivo, human
- RUN CONDITIONS: human, plasma, intravenous, 134.4 mg; 1.5 hr; read-out: Plasma concentration, Mean
QUANTITY: concentration at 1.5 h (ng/mL)
Numeric only. Scale: ng/mL

INPUT: For the molecule COC(=O)N1CCC[C@H](NS(C)(=O)=O)[C@@H]1CO[C@H]1CC[C@@H](c2ccccc2)CC1 , what concentration at 1.5 h is on record?
OUTPUT: 228

* * *

- ASSAY PROCEDURE: Single dose PK in healthy subjects (Cohorts 1, 2, S1 and S2), plasma
- Assay type: in vivo, human
- RUN CONDITIONS: human, plasma, intravenous, 112 mg; 0.5 hr; read-out: Plasma concentration, Maximum
- From the text: […]
QUANTITY: concentration at 0.5 h (ng/mL)
Numeric only. Scale: ng/mL

INPUT: For the compound COC(=O)N1CCC[C@H](NS(C)(=O)=O)[C@@H]1CO[C@H]1CC[C@@H](c2ccccc2)CC1 , what concentration at 0.5 h is on record?
OUTPUT: 174

* * *

- ASSAY PROCEDURE: Single dose PK in healthy subjects (Cohorts 1, 2, S1 and S2), plasma
- Assay type: in vivo, human
- RUN CONDITIONS: human, plasma, intravenous, 112 mg; 4 hr; read-out: Plasma concentration, Q1
QUANTITY: concentration at 4 h (µg/mL)
Numeric only. Scale: µg/mL

INPUT: For the compound COC(=O)N1CCC[C@H](NS(C)(=O)=O)[C@@H]1CO[C@H]1CC[C@@H](c2ccccc2)CC1 [Compound A] , what concentration at 4 h is on record?
OUTPUT: 0.215

* * *

- ASSAY PROCEDURE: Single dose PK in healthy subjects (Cohorts 1, 2, S1 and S2), plasma
- Format: in vivo, human
- RUN CONDITIONS: human, plasma, iv, 7 mg, 7 mg single IV infusion, healthy subjects; read-out: AUClast Mean
QUANTITY: AUC(0-t) (ng·h/mL)
Numeric only. Scale: ng·h/mL

INPUT: For the compound COC(=O)N1CCC[C@H](NS(C)(=O)=O)[C@@H]1CO[C@H]1CC[C@@H](c2ccccc2)CC1 [Compound A] , what AUC(0-t) is on record?
OUTPUT: 140

* * *

- ASSAY PROCEDURE: Single dose PK in patients with narcolepsy (Cohorts 5, 6 and 7), plasma
- Format: in vivo, human
- RUN CONDITIONS: human, plasma, iv, 5 mg; 1 hr; NT1, single 9 h IV infusion; read-out: Plasma concentration, Mean
QUANTITY: concentration at 1 h (ng/mL)
Numeric only. Scale: ng/mL

INPUT: For the compound COC(=O)N1CCC[C@H](NS(C)(=O)=O)[C@@H]1CO[C@H]1CC[C@@H](c2ccccc2)CC1 , what concentration at 1 h is on record?
OUTPUT: 6.38

From: patent US20220339143A1
